System: Escherichia coli TOP10
Test protocol: shrunken log2 fold change of peptide-encoding DNA abundance (4.5 h post-induction vs induction); higher = less antimicrobial activity (less host growth inhibition)
Condition parameters: time post-induction: 4.5 h; library: site-saturation at positions 5, 18, 19, 20
Reported shrunken log2 fold change is given for each of the following sequences.
Provide a numeric answer; units are not to be included.

// known answers, use as guide
Tell me its shrunken log2 fold change given RRIRFRPPRLPRPRPRPYAMPRP as the entry.
-0.686

Tell me its shrunken log2 fold change given RRIRERPPRLPRPRPRPPKIPRP as the entry.
-0.28

Continuing:
Tell me its shrunken log2 fold change given RRIRSRPPRLPRPRPRPMKRPRP as the entry.
-0.115

Tell me its shrunken log2 fold change given RRIRPRPPRLPRPRPRPEHWPRP as the entry.
0.226

Tell me its shrunken log2 fold change given RRIRTRPPRLPRPRPRPLGKPRP as the entry.
0.0663

Tell me its shrunken log2 fold change given RRIRHRPPRLPRPRPRPTLIPRP as the entry.
0.0888

Tell me its shrunken log2 fold change given RRIRKRPPRLPRPRPRPNVRPRP as the entry.
-0.0184

Tell me its shrunken log2 fold change given RRIRVRPPRLPRPRPRPWETPRP as the entry.
0.0394

Tell me its shrunken log2 fold change given RRIRVRPPRLPRPRPRPGESPRP as the entry.
0.0694

Tell me its shrunken log2 fold change given RRIRTRPPRLPRPRPRPWSKPRP as the entry.
-0.0826

----------
Tested on: Escherichia coli TOP10
Test protocol: shrunken log2 fold change of peptide-encoding DNA abundance (4.5 h post-induction vs induction); higher = less antimicrobial activity (less host growth inhibition)
Condition parameters: time post-induction: 4.5 h; library: site-saturation at positions 5, 18, 19, 20
Reported shrunken log2 fold change is given for each of the following sequences.
Provide a numeric answer; units are not to be included.

Enter measured shrunken log2 fold change, system Escherichia coli TOP10, for the sequence shown: RRIRARPPRLPRPRPRPAFCPRP
0.645

Enter measured shrunken log2 fold change, system Escherichia coli TOP10, for the sequence shown: RRIRWRPPRLPRPRPRPAFTPRP
0.0598

Enter measured shrunken log2 fold change, system Escherichia coli TOP10, for the sequence shown: RRIRVRPPRLPRPRPRPYRFPRP
-0.0944

Continuing:
Enter measured shrunken log2 fold change, system Escherichia coli TOP10, for the sequence shown: RRIRARPPRLPRPRPRPFWPPRP
0.412

Enter measured shrunken log2 fold change, system Escherichia coli TOP10, for the sequence shown: RRIRQRPPRLPRPRPRPFMAPRP
-0.61

Enter measured shrunken log2 fold change, system Escherichia coli TOP10, for the sequence shown: RRIRHRPPRLPRPRPRPTCRPRP
-0.232

Enter measured shrunken log2 fold change, system Escherichia coli TOP10, for the sequence shown: RRIRYRPPRLPRPRPRPTIKPRP
-0.151

Enter measured shrunken log2 fold change, system Escherichia coli TOP10, for the sequence shown: RRIRCRPPRLPRPRPRPHNNPRP
-0.991

Enter measured shrunken log2 fold change, system Escherichia coli TOP10, for the sequence shown: RRIRTRPPRLPRPRPRPVYWPRP
-0.103

Enter measured shrunken log2 fold change, system Escherichia coli TOP10, for the sequence shown: RRIRARPPRLPRPRPRPDCHPRP
1.05

Enter measured shrunken log2 fold change, system Escherichia coli TOP10, for the sequence shown: RRIRMRPPRLPRPRPRPVGVPRP
0.806

Enter measured shrunken log2 fold change, system Escherichia coli TOP10, for the sequence shown: RRIRKRPPRLPRPRPRPCQHPRP
-0.167

Enter measured shrunken log2 fold change, system Escherichia coli TOP10, for the sequence shown: RRIRKRPPRLPRPRPRPCFSPRP
-0.51

Enter measured shrunken log2 fold change, system Escherichia coli TOP10, for the sequence shown: RRIRGRPPRLPRPRPRPQQRPRP
1.43

Enter measured shrunken log2 fold change, system Escherichia coli TOP10, for the sequence shown: RRIRFRPPRLPRPRPRPFHHPRP
-0.976

Enter measured shrunken log2 fold change, system Escherichia coli TOP10, for the sequence shown: RRIRLRPPRLPRPRPRPNPYPRP
-0.0545

Enter measured shrunken log2 fold change, system Escherichia coli TOP10, for the sequence shown: RRIRNRPPRLPRPRPRPWKDPRP
-0.00136

Enter measured shrunken log2 fold change, system Escherichia coli TOP10, for the sequence shown: RRIRTRPPRLPRPRPRPHNLPRP
-0.274

Enter measured shrunken log2 fold change, system Escherichia coli TOP10, for the sequence shown: RRIRPRPPRLPRPRPRPYPPPRP
-0.537

Enter measured shrunken log2 fold change, system Escherichia coli TOP10, for the sequence shown: RRIRWRPPRLPRPRPRPLGIPRP
-0.242

Enter measured shrunken log2 fold change, system Escherichia coli TOP10, for the sequence shown: RRIRTRPPRLPRPRPRPMGSPRP
-0.0908

Enter measured shrunken log2 fold change, system Escherichia coli TOP10, for the sequence shown: RRIRPRPPRLPRPRPRPNMNPRP
-0.584

Enter measured shrunken log2 fold change, system Escherichia coli TOP10, for the sequence shown: RRIRFRPPRLPRPRPRPWEQPRP
-0.00193

Enter measured shrunken log2 fold change, system Escherichia coli TOP10, for the sequence shown: RRIRARPPRLPRPRPRPWTVPRP
-0.0846

Enter measured shrunken log2 fold change, system Escherichia coli TOP10, for the sequence shown: RRIRTRPPRLPRPRPRPNHYPRP;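 also: peptides expressed intracellularly from a pBAD plasmid library in pooled LB shake-flask culture, induced with 0.3% L-arabinose, DNA abundance read by NGS, three biological replicates, DESeq2 with apeglm shrinkage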
-0.679
